# protocol-text: Parallel artificial membrane permeability assay (PAMPA)
# Format: in vitro ADME
# condition-info: 200 μM initial concentration, pH 7.4, 4 hours, room temperature
outcome-measure: % T (percentage of transport) (%)

1 = COc1cc(C(=O)N2C[C@H](F)C[C@H]2C(=O)N2CCC[C@H]2C#N)cc(OC)c1OCc1ccccc1 [Example 2]
2 = COc1cc(C(=O)N2C[C@@H](C(F)(F)F)C[C@H]2C(=O)N2CCC[C@H]2C#N)cc(OC)c1OCc1ccccc1 [Example 8]
3 = COc1cc(C(=O)N2CC(F)(F)C[C@H]2C(=O)N2CCC[C@H]2C#N)cc(OC)c1OC(=O)c1ccccc1 [Example 12]
Which order do these items take when sorted by rising % T (percentage of transport)? List them. Return the labels ranked in the requested order, please. 3, 1, 2
(3: 8.47%, 1: 13.03%, 2: 19.27%)

* * *

# measured-target: human prolyl oligopeptidase (Homo sapiens (Human))
# Sequence (P48147 whole entry): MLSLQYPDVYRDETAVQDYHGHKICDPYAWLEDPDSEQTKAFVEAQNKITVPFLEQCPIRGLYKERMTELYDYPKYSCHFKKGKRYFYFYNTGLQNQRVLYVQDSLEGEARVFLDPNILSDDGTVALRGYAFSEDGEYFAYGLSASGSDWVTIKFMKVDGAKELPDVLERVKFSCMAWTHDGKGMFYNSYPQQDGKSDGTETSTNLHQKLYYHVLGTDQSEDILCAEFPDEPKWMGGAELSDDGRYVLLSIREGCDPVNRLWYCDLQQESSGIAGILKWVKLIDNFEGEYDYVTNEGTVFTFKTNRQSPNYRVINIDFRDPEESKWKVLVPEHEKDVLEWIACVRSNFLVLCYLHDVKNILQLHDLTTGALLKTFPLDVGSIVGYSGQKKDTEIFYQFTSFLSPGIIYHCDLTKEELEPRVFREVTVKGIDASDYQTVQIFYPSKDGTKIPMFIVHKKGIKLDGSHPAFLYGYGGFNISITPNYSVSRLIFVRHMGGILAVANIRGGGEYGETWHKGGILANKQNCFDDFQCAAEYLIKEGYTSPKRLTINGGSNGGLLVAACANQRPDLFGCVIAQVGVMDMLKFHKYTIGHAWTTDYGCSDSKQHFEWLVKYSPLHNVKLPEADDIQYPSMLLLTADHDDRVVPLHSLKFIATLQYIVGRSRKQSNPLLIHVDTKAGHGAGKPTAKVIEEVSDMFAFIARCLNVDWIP
# protocol-text: POP inhibition assay (Z-G-P-AMC substrate, fluorimetric)
# Assay type: biochemical
# condition-info: 100 mM Na/K phosphate buffer, pH 8.0, hPOP 20 to 60 nM, Z-G-P-AMC, 1 hour at 37° C.; read-out: IC50, inhibition of human prolyl oligopeptidase
pIC50: −log10 of the molar value.
outcome-measure: pIC50

Worked examples follow.
{"columns": ["line-notation", "measured-target", "reported"],
 "data": [
  ["COc1cc(C(=O)N2CC(F)(F)C[C@H]2C(=O)N2CCC[C@H]2C#N)cc(OC(C)=O)c1OC", "human prolyl oligopeptidase (Homo sapiens (Human))", 5.25],
  ["COc1cc(C(=O)N2CC(F)(F)C[C@H]2C(=O)N2CCC[C@H]2C#N)cc(OCc2ccccc2)c1OCc1ccccc1", "human prolyl oligopeptidase (Homo sapiens (Human))", 6.47],
  ["COc1cc(C(=O)N2CC(F)(F)C[C@H]2C(=O)N2CCC[C@H]2C#N)cc(OC(=O)C(C)(C)C)c1OC", "human prolyl oligopeptidase (Homo sapiens (Human))", 5.67]
]}

1 = COc1cc(C(=O)N2C[C@@H](SC)C[C@H]2C(=O)N2CCC[C@H]2C#N)cc(OC)c1OCc1ccccc1
2 = COc1cc(C(=O)N2C[C@H](c3ccccc3)C[C@H]2C(=O)N2CCC[C@H]2C#N)cc(OC)c1OCc1ccccc1
# compare pIC50 for 1 vs 2 ; return the one with the smaller value The response must carry the label of the picked entry. 2
(2: 6.47, 1: 6.75)

* * *

# protocol-text: Parallel artificial membrane permeability assay (PAMPA)
# Assay type: in vitro ADME
# condition-info: PAMPA; 200 μM initial concentration, pH 7.4, 4 hours, room temperature; read-out: Effective permeability Pe
outcome-measure: Papp at 4 h, 200 μM (×10⁻⁶ cm/s)

Worked examples follow.
{"columns": ["compound", "unit-abbreviation", "reported"],
 "data": [
  ["N#C[C@@H]1CCCN1C(=O)[C@@H]1CC(F)(F)CN1C(=O)c1ccc(OCc2ccccc2)cc1 [Example 17]", "×10⁻⁶ cm/s", 8.04],
  ["COc1cc(C(=O)N2C[C@H](OC)C[C@H]2C(=O)N2CCC[C@H]2C#N)cc(OC)c1OCc1ccccc1 [Example 1]", "×10⁻⁶ cm/s", 1],
  ["N#C[C@@H]1CCCN1C(=O)[C@@H]1CC(F)(F)CN1C(=O)c1ccc(OCc2ccccc2)c(C(F)(F)F)c1 [Example 20]", "×10⁻⁶ cm/s", 1.29],
  ["COc1cc(C(=O)N2C[C@@H](SC)C[C@H]2C(=O)N2CCC[C@H]2C#N)cc(OC)c1OCc1ccccc1 [Example 5]", "×10⁻⁶ cm/s", 9.98],
  ["COc1cc(C(=O)N2CC(F)(F)C[C@H]2C(=O)N2CCC[C@H]2C#N)cc(OC(=O)C(C)(C)C)c1OC [Example 16]", "×10⁻⁶ cm/s", 5.02]
]}

P = COc1cc(C(=O)N2C[C@@H](C)C[C@H]2C(=O)N2CCC[C@H]2C#N)cc(OC)c1OCc1ccccc1 [Example 6]
Q = N#C[C@@H]1CCCN1C(=O)[C@@H]1CC(F)(F)CN1C(=O)c1ccc(OCc2ccccc2)c(F)c1 [Example 21]
# compare Papp at 4 h, 200 μM for P vs Q ; return the one with the smaller value The response must carry the label of the picked entry. P
